- assay summary: Evaluation of light fastness-1 (OD value of printed portion after 100 hours xenon fadeometer)
- Type: physicochemical
- test parameters: ink prepared as in Example 1 from the salt named in the row; OD value of printed portion after 100 hours xenon fadeometer

smiles repr	(A)-1 light fastness-1
Cc1c(N=Nc2cc(C(=O)O)ccc2C(=O)O)c(O)n(CCNC(=O)c2cc(C(=O)O)c(C(=O)NCCn3c(O)c(N=Nc4cc(C(=O)O)ccc4C(=O)O)c(C)c(C#N)c3=O)cc2C(=O)O)c(=O)c1C#N	⊚
N#Cc1c(-c2ccccc2)c(N=Nc2cc(C(=O)O)ccc2C(=O)O)c(O)n(CCNC(=O)c2cc(C(=O)O)c(C(=O)NCCn3c(O)c(N=Nc4cc(C(=O)O)ccc4C(=O)O)c(-c4ccccc4)c(C#N)c3=O)cc2C(=O)O)c1=O	⊚

----------
- assay summary: Evaluation of light fastness-1 (OD value of printed portion after 100 hours xenon fadeometer)
- Format: physicochemical
- test parameters: ink prepared as in Example 1 from the salt named in the row; OD value of printed portion after 100 hours xenon fadeometer
property: (A)-1 light fastness-1

smiles repr	observed result
Cc1c(N=Nc2cc(C(=O)O)ccc2C(=O)O)c(O)n(Cc2cc(S(=O)(=O)O)cc(S(=O)(=O)O)c2)c(=O)c1C#N	⊚
N#Cc1c(C(F)(F)F)c(N=Nc2cc(C(=O)O)ccc2C(=O)O)c(O)n(CCNc2nc(Cl)nc(NCCn3c(O)c(N=Nc4cc(C(=O)O)ccc4C(=O)O)c(C(F)(F)F)c(C#N)c3=O)n2)c1=O	⊚
Cc1c(N=Nc2cc(C(=O)O)ccc2C(=O)O)c(O)n(CCS(=O)(=O)O)c(=O)c1C#N	⊚

----------
- assay summary: Evaluation of moisture resistance (image-recorded paper at 40° C. and humidity 85%, visual observation)
- Type: physicochemical
- test parameters: image-recorded paper at 40° C. and humidity 85%, visually observed
property: (B) moisture resistance

Would you please look over these solved cases?
compound	observed result
CCc1c(N=Nc2cc(C(=O)O)ccc2C(=O)O)c(O)n(CCNC(=O)c2cc(C(=O)O)c(C(=O)NCCn3c(O)c(N=Nc4cc(C(=O)O)ccc4C(=O)O)c(CC)c(C#N)c3=O)cc2C(=O)O)c(=O)c1C#N	⊚
Cc1c(N=Nc2cccc(C(=O)O)c2C(=O)O)c(O)n(CC(O)C(O)C(O)C(O)C(O)CO)c(=O)c1C#N (centres unmarked)	◯
Cc1c(N=Nc2cccc(C(=O)O)c2C(=O)O)c(O)n(CCNC(=O)c2cc(C(=O)O)c(C(=O)NCCn3c(O)c(N=Nc4cccc(C(=O)O)c4C(=O)O)c(C)c(C#N)c3=O)cc2C(=O)O)c(=O)c1C#N	⊚
CCc1c(N=Nc2cc(C(=O)O)ccc2C(=O)O)c(O)n(CCNc2nc(NCCn3c(O)c(N=Nc4cc(C(=O)O)ccc4C(=O)O)c(CC)c(C#N)c3=O)nc(NCCn3c(O)c(N=Nc4cc(C(=O)O)ccc4C(=O)O)c(CC)c(C#N)c3=O)n2)c(=O)c1C#N	⊚

Next compound, (B) moisture resistance to be filled in.
The measured (B) moisture resistance associated with "Cc1c(N=Nc2cc(C(=O)O)ccc2C(=O)O)c(O)n(CCO)c(=O)c1C#N" reads ◯

----------
- assay summary: Evaluation of storage stability of ink (40° C. for 3 months, insoluble matter and clogging)
- Type: physicochemical
- test parameters: recording liquid stored at 40° C. for 3 months; insoluble matter and clogging
property: (C) storage stability

Would you please look over these solved cases?
molecule	property	observed result
CCc1c(N=Nc2cc(C(=O)O)ccc2C(=O)O)c(O)n(CCNc2nc(NCCn3c(O)c(N=Nc4cc(C(=O)O)ccc4C(=O)O)c(CC)c(C#N)c3=O)nc(NCCn3c(O)c(N=Nc4cc(C(=O)O)ccc4C(=O)O)c(CC)c(C#N)c3=O)n2)c(=O)c1C#N	(C) storage stability	◯
CCCCc1c(N=Nc2cc(C(=O)O)ccc2C(=O)O)c(O)n(CCNc2nc(NCCn3c(O)c(N=Nc4cc(C(=O)O)ccc4C(=O)O)c(CCCC)c(C#N)c3=O)nc(NCCn3c(O)c(N=Nc4cc(C(=O)O)ccc4C(=O)O)c(CCCC)c(C#N)c3=O)n2)c(=O)c1C#N	(C) storage stability	◯
Cc1c(N=Nc2cc(C(=O)O)ccc2C(=O)O)c(O)n(CCNC(=O)c2cc(C(=O)O)c(C(=O)NCCn3c(O)c(N=Nc4cc(C(=O)O)ccc4C(=O)O)c(C)c(C#N)c3=O)cc2C(=O)O)c(=O)c1C#N	(C) storage stability	◯
Cc1c(C(=O)O)ccc(C(=O)O)c1N=Nc1c(C)c(C#N)c(=O)n(CCCS(=O)(=O)O)c1O	(C) storage stability	◯
CCOC(=O)Cc1c(N=Nc2cc(C(=O)O)ccc2C(=O)O)c(O)n(CCNc2nc(Cl)nc(NCCn3c(O)c(N=Nc4cc(C(=O)O)ccc4C(=O)O)c(CC(=O)OCC)c(C#N)c3=O)n2)c(=O)c1C#N	(C) storage stability	◯
CCc1c(N=Nc2cc(C(=O)O)ccc2C(=O)O)c(O)n(CCNC(=O)c2ccc(C(=O)NCCn3c(O)c(N=Nc4cc(C(=O)O)ccc4C(=O)O)c(CC)c(C#N)c3=O)c(C(=O)NCCn3c(O)c(N=Nc4cc(C(=O)O)ccc4C(=O)O)c(CC)c(C#N)c3=O)c2)c(=O)c1C#N	(C) storage stability	Δ
Cc1c(N=Nc2cccc(C(=O)O)c2C(=O)O)c(O)[nH]c(=O)c1C#N	(C) storage stability	◯
Cc1c(N=Nc2cc(C(=O)O)ccc2C(=O)O)c(O)n(CCCNc2nc(NCCn3c(O)c(N=Nc4cc(C(=O)O)ccc4C(=O)O)c(C)c(C#N)c3=O)nc(NCCn3c(O)c(N=Nc4c(C(=O)O)cccc4C(=O)O)c(C)c(C#N)c3=O)n2)c(=O)c1C#N [Compound 270]	(C) storage stability	Δ
Cc1c(N=Nc2cc(S(=O)(=O)O)ccc2C(=O)O)c(O)n(CCC(=O)O)c(=O)c1C#N	(C) storage stability	◯
N#Cc1c(-c2ccccc2)c(N=Nc2cc(C(=O)O)ccc2C(=O)O)c(O)n(CCNC(=O)c2cc(C(=O)O)c(C(=O)NCCn3c(O)c(N=Nc4cc(C(=O)O)ccc4C(=O)O)c(-c4ccccc4)c(C#N)c3=O)cc2C(=O)O)c1=O	(C) storage stability	◯

The measured (C) storage stability associated with "C[N+](C)(C)C.C[N+](C)(C)C.C[N+](C)(C)C.C[N+](C)(C)C.Cc1c(N=Nc2cc(C(=O)[O-])ccc2C(=O)[O-])c(O)n(CCNc2nc(Cl)nc(NCCn3c(O)c(N=Nc4cc(C(=O)[O-])ccc4C(=O)[O-])c(C)c(C#N)c3=O)n2)c(=O)c1C#N" reads ∘

The measured (C) storage stability associated with "Cc1c(N=Nc2cc(C(=O)O)ccc2C(=O)O)c(O)n(CCCNc2nc(Cl)nc(NCCCn3c(O)c(N=Nc4cc(C(=O)O)ccc4C(=O)O)c(C)c(C#N)c3=O)n2)c(=O)c1C#N" reads ◯

The measured (C) storage stability associated with "Cc1c(N=Nc2cc(C(=O)O)ccc2C(=O)O)c(O)n(CCNC(=O)c2ccc(C(=O)NCCn3c(O)c(N=Nc4cc(C(=O)O)ccc4C(=O)O)c(C)c(C#N)c3=O)c(C(=O)NCCn3c(O)c(N=Nc4cc(C(=O)O)ccc4C(=O)O)c(C)c(C#N)c3=O)c2)c(=O)c1C#N" reads Δ

The measured (C) storage stability associated with Cc1c(N=Nc2c(C(=O)O)cccc2C(=O)O)c(O)n(C(O)CO)c(=O)c1C#N (stereo not drawn) reads ◯

The measured (C) storage stability associated with "Cc1c(N=Nc2cc(C(=O)O)ccc2C(=O)O)c(O)n(CCNc2nc(NCCn3c(O)c(N=Nc4cc(C(=O)O)ccc4C(=O)O)c(C)c(C#N)c3=O)nc(NCCn3c(O)c(N=Nc4cc(C(=O)O)ccc4C(=O)O)c(C)c(C#N)c3=O)n2)c(=O)c1C#N" reads Δ

The measured (C) storage stability associated with "Cc1c(N=Nc2cc(C(=O)O)ccc2C(=O)O)c(O)n(Cc2cc(S(=O)(=O)O)cc(S(=O)(=O)O)c2)c(=O)c1C#N" reads ◯

The measured (C) storage stability associated with "Cc1c(N=Nc2cc(C(=O)O)ccc2C(=O)O)c(O)n(CCCCCCNc2nc(Cl)nc(NCCn3c(O)c(N=Nc4cc(C(=O)O)ccc4C(=O)O)c(C)c(C#N)c3=O)n2)c(=O)c1C#N" reads Δ

The measured (C) storage stability associated with "CCc1c(N=Nc2cc(C(=O)O)ccc2C(=O)O)c(O)n(CCNC(=O)c2cc(C(=O)NCCn3c(O)c(N=Nc4cc(C(=O)O)ccc4C(=O)O)c(CC)c(C#N)c3=O)c(C(=O)O)cc2C(=O)O)c(=O)c1C#N" reads ◯

----------
- assay summary: Evaluation of moisture resistance (image-recorded paper at 40° C. and humidity 85%, visual observation)
- Format: physicochemical
- test parameters: image-recorded paper at 40° C. and humidity 85%, visually observed

smiles repr	(B) moisture resistance
Cc1c(N=Nc2cc(C(=O)O)ccc2C(=O)O)c(O)n(CCNC(=O)c2cc(C(=O)NCCn3c(O)c(N=Nc4cc(C(=O)O)ccc4C(=O)O)c(C)c(C#N)c3=O)c(C(=O)O)cc2C(=O)O)c(=O)c1C#N	⊚
Cc1c(N=Nc2cc(C(=O)O)ccc2C(=O)O)c(O)n(CCCCCCNC(=O)c2cc(C(=O)NCCCCCCn3c(O)c(N=Nc4cc(C(=O)O)ccc4C(=O)O)c(C)c(C#N)c3=O)c(C(=O)O)cc2C(=O)O)c(=O)c1C#N	⊚
